# measured target: full-length HAQ STING (Homo sapiens (Human), UniProt Q86WV6, G230A/H232R/R293Q/R71H)
# Sequence (Q86WV6 other isoform, or with tags, fused parts or gaps, stated change not applied): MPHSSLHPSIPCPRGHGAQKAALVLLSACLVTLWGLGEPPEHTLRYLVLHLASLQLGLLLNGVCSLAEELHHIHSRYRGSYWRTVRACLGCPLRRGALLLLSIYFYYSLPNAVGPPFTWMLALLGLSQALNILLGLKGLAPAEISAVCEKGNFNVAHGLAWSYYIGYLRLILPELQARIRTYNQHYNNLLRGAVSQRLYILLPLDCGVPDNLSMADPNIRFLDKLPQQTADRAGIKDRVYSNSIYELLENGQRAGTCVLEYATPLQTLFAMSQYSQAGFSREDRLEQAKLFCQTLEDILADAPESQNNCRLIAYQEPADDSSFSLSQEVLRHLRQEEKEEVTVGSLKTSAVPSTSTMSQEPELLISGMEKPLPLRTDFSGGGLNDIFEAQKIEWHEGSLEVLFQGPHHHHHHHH
# assay method text: 3H-cGAMP filtration binding assay (HAQ STING)
# condition notes: competition with tritiated cGAMP, HAQ STING membrane
property name: EC50 (µM)

// below: answered molecules
Task: Recall and state the measured EC50 for CNc1cc2cc(C(=O)CCC(=O)O)sc2cc1OC .
Output: 14

Task: Recall and state the measured EC50 for COc1cc2cc(C(=O)C[C@H](C)C(=O)O)sc2cc1O .
Output: 1.2

Task: Recall and state the measured EC50 for CCOC(=O)C(C)(O)CC(=O)c1cc2cc(OC)c(OC)cc2s1 (centres unmarked) .
Output: 19.2

Task: Recall and state the measured EC50 for COCC(CC(=O)c1cc2cc(OC)c(OC)cc2s1)C(=O)O (centres unmarked) .
Output: 5.87

Task: Recall and state the measured EC50 for C=Cc1cc2cc(C(=O)[C@@H]3C[C@@H]3C(=O)O)sc2cc1OC .
Output: 1.15

Task: Recall and state the measured EC50 for COc1cc2sc(C(=O)[C@@H]3C[C@@H]3C(=O)O)cc2cc1Br (single isomer, unassigned) .
Output: 1.14

Task: Recall and state the measured EC50 for COc1cc2sc(C(=O)[C@@H]3C[C@@H]3C(=O)O)cc2c(F)c1OC .
Output: 0.599

Task: Recall and state the measured EC50 for COc1cc2sc(C(=O)C3CC3C(=O)O)cc2cc1SC (centres unmarked) .
Output: 3.94

Task: Recall and state the measured EC50 for CCC(CC(=O)c1cc2c(F)c(OC)c(OC)cc2s1)C(=O)O (centres unmarked) .
Output: 0.89

Task: Recall and state the measured EC50 for COc1cc2sc(C(=O)C[C@H](C)C(=O)O)cc2cc1Br .
Output: 2.64

P. COc1cc2sc(C(=O)[C@H]3C[C@H]3C(=O)O)cc2cc1Br (single isomer, unassigned)
Q. COc1cc2sc(C(=O)C[C@H](C)C(=O)O)cc2cc1F
R. C#Cc1cc2cc(C(=O)CCC(=O)O)sc2cc1OC
S. COc1cc2sc(C(=O)CCC(=O)O)cc2cc1Br
Task: Sort the 4 molecules by EC50; largest first, smallest last. Your answer should be the labels, listed in the requested order.
Output: R, S, Q, P
